biological target: WT Spike (SARS-CoV2)
Property Measured: Response

Binder	Measured Result
Ab_25 scFv-Fc (scFv, V domains shown) VH: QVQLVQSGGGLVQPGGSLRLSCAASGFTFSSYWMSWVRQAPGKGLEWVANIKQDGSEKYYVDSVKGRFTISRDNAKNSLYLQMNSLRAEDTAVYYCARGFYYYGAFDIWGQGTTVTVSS VL: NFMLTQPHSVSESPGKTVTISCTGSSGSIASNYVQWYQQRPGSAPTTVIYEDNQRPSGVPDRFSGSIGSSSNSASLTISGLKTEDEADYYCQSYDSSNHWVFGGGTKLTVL	0.0219
